Tested on: 556581-035-R-J1-PDC complex spheroid growth
Experiment: Anticancer human tumor 556581-035-R-J1-PDC patient-derived ovarian carcinoma cell line growth inhibition [Asc]
Settings: second compound 0.03 µM; first compound 0.1 µM; hits give low values
Text: Multicellular complex tumor spheroid response to apoptosis pathway targeting inhibitors Alrizomadlin, Pelcitoclax, and Dasminapant in combination with a variety of drugs and investigational agents in selected tumor cell lines […] Compounds. […] If the clinical Cmax for an agent had not been determined, the highest concentration tested was 10 microM. […]
Give measured viability, T/C for each item. Keep answers brief.
Give bare numbers, in %.

Solved cases below.
{"compound": "C#Cc1c(F)ccc2cc(O)cc(-c3ncc4c(N5CC6CCC(C5)N6)nc(OCC56CCCN5CC(F)C6)nc4c3F)c12 (centres undefined) + CCN1C(C(=O)NC23CCC(C(=O)O)(CC2)CC3)C(c2cccc(Cl)c2F)C2(C(=O)Nc3cc(Cl)ccc32)C12CCCCC2", "unit.descriptor": "%", "viability, T/C": 86}
{"compound": "C=C(F)C(=O)N1CCN(c2nc(OCC3CCCN3C)nc3c2CCN(c2cccc4cccc(Cl)c24)C3)CC1CC#N (centres undefined) + CCN1C(C(=O)NC23CCC(C(=O)O)(CC2)CC3)C(c2cccc(Cl)c2F)C2(C(=O)Nc3cc(Cl)ccc32)C12CCCCC2", "unit.descriptor": "%", "viability, T/C": 97.3}
{"compound": "COc1c(OCCCN2CCOCC2)ccc2c3n(c(=NC(=O)c4cnc(N)nc4)nc12)CCN3 + CCN1C(C(=O)NC23CCC(C(=O)O)(CC2)CC3)C(c2cccc(Cl)c2F)C2(C(=O)Nc3cc(Cl)ccc32)C12CCCCC2", "unit.descriptor": "%", "viability, T/C": 43.3}

In the following, a different compound is considered.
Dear colleague, I am looking for the recorded viability, T/C of the following compound: O=C(c1ccc(F)c(F)c1Nc1ccc(I)cc1F)N1CC(O)([C@@H]2CCCCN2)C1 + CCN1C(C(=O)NC23CCC(C(=O)O)(CC2)CC3)C(c2cccc(Cl)c2F)C2(C(=O)Nc3cc(Cl)ccc32)C12CCCCC2
72.9

###

tested on: 556581-035-R-J1-PDC complex spheroid growth; test: Anticancer human tumor 556581-035-R-J1-PDC cell line growth inhibition [Asc]; conditions: second compound 10 µM; first compound 10 µM; hits give low values;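 further: spheroids exposed to agents for 7 days before viability read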
property.label: viability, T/C (%)
Answers are plain numbers, in %.

Solved cases below.
{"compound": "C#Cc1c(F)ccc2cc(O)cc(-c3ncc4c(N5CC6CCC(C5)N6)nc(OCC56CCCN5CC(F)C6)nc4c3F)c12 (stereo not drawn) + Cc1c(S(C)(=O)=O)c(-c2cc(F)cc(N3CCN(c4ccc(NS(=O)(=O)c5ccc(NC(CCN6CCC(C(=O)OCCCP(=O)(O)O)CC6)CSc6ccccc6)c(S(=O)(=O)C(F)(F)F)c5)cc4)CC3)c2)c(-c2ccc(Cl)cc2)n1C(C)C", "unit.descriptor": "%", "viability, T/C": 39.6}
{"compound": "C=CC(=O)N1CCN(c2nc(=O)n(-c3c(C)ccnc3C(C)C)c3nc(-c4c(O)cccc4F)c(F)cc23)C(C)C1 (stereo not drawn) + Cc1c(S(C)(=O)=O)c(-c2cc(F)cc(N3CCN(c4ccc(NS(=O)(=O)c5ccc(NC(CCN6CCC(C(=O)OCCCP(=O)(O)O)CC6)CSc6ccccc6)c(S(=O)(=O)C(F)(F)F)c5)cc4)CC3)c2)c(-c2ccc(Cl)cc2)n1C(C)C", "unit.descriptor": "%", "viability, T/C": 46.4}

In the following, a different compound is considered.
Dear colleague, I am looking for the recorded viability, T/C of the following compound: O=C(c1cc(Cc2n[nH]c(=O)c3ccccc23)ccc1F)N1CCN(C(=O)C2CC2)CC1 + Cc1c(S(C)(=O)=O)c(-c2cc(F)cc(N3CCN(c4ccc(NS(=O)(=O)c5ccc(NC(CCN6CCC(C(=O)OCCCP(=O)(O)O)CC6)CSc6ccccc6)c(S(=O)(=O)C(F)(F)F)c5)cc4)CC3)c2)c(-c2ccc(Cl)cc2)n1C(C)C
77.5
